- Test system: Escherichia coli TOP10;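 also: peptides expressed intracellularly from a pBAD plasmid library in pooled LB shake-flask culture, induced with 0.3% L-arabinose, DNA abundance read by NGS, three biological replicates, DESeq2 with apeglm shrinkage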
- test.description: shrunken log2 fold change of peptide-encoding DNA abundance (4.5 h post-induction vs induction); higher = less antimicrobial activity (less host growth inhibition)
- setup.conditions: time post-induction: 4.5 h; library: site-saturation at positions 5, 18, 19, 20
quantity.kind: shrunken log2 fold change
One number for each entry.

# annotated cases, reported shrunken log2 fold change shown
>>> readout_number("RRIRERPPRLPRPRPRPKHGPRP")
-0.017
>>> readout_number("RRIRMRPPRLPRPRPRPCDNPRP")
0.0146
>>> readout_number("RRIRKRPPRLPRPRPRPHHFPRP")
-0.0062
>>> readout_number("RRIRARPPRLPRPRPRPAEEPRP")
0.697

Could you report shrunken log2 fold change for every entry in the following list?
1. RRIRQRPPRLPRPRPRPHIDPRP
2. RRIRKRPPRLPRPRPRPSMTPRP

Result:
1. -0.224
2. -0.0765

Items follow; give shrunken log2 fold change for each.
1. RRIRLRPPRLPRPRPRPWWAPRP
2. RRIRTRPPRLPRPRPRPECTPRP

Result:
[0.0811, 0.0491]
